Numbers sourced from patent US6794402B2.

Measured melting point by item
Where a name gives a salt, the structure may show the parent alone.

Look at this compound and give its reported melting point. O=c1[nH]c2ccc([C@H]3CC[C@H](NCCSc4ccccc4)CC3)cc2o1 (as salt: HCl)
241 to 243 °C

State the recorded melting point for this entry: C[C@@H](CCc1ccccc1)N[C@H]1CC[C@H](c2ccc3[nH]c(=O)oc3c2)CC1
174 to 176 °C

Dear colleague, I am looking for the recorded melting point of the following compound: CN(CCCc1c(F)cc(F)cc1F)[C@H]1CC[C@H](c2ccc3[nH]c(=O)oc3c2)CC1 (as salt: HCl)
235 to 238 °C

Field request: melting point | item: CC(C)Cc1ccc(CCCN(C)[C@H]2CC[C@H](c3ccc4[nH]c(=O)oc4c3)CC2)cc1 (as salt: HCl)
162 to 165 °C
